Tested on: hERG
Test: Competition radioligand binding (NIMH PDSP)
Conditions: human, probe Dofetilide (radioligand), measured 4 times, read-out: % inhibition by 10 µM LS3
Where a SMILES comes first, the peptide text is derived from it. Bridges are numbered along the chain shown (N, C = ends).
measurementName: inhibition at 10 µM (%)
Give bare numbers, in %.

Problem: May I ask what inhibition at 10 µM has been recorded for CC(C)C[C@@H]1NC(=O)CNC(=O)[C@H](CCCNC(=N)N)NC(=O)[C@H](CCCNC(=N)N)NC(=O)[C@@H](N)CSSC[C@@H](C(=O)O)NC(=O)[C@H](C(C)C)NC(=O)[C@H](CCC(N)=O)NC(=O)[C@H](C(C)C)NC1=O [LS3] (H-CRRGLVQVC-OH; disulfide 1-9; N-terminus and C-terminus assumed) ?
Result: 21.2
